B1: POU domain, class 2, transcription factor 3, residues 186 to 260; numbered along this chain, Q9UKI9 (parent)
chain: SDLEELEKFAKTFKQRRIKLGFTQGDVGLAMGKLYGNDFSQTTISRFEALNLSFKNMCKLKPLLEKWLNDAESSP

Variants of: B1
protocolText: abundance fitness (aPCA) (normalised: wild type 0, dead -1); higher = more abundant; growth selection in yeast, the domain comes from the species named
conditionDescription: Homo sapiens
Collected abundance fitness values appear next to each entry.
quantityName: abundance fitness

variantdescriptor=A71K quantityname="abundance fitness" experimentalvalue=0.022
variantdescriptor=K61S quantityname="abundance fitness" experimentalvalue=-0.153
variantdescriptor=N69P quantityname="abundance fitness" experimentalvalue=-0.326
variantdescriptor=K66V quantityname="abundance fitness" experimentalvalue=-0.066
variantdescriptor=F54D quantityname="abundance fitness" experimentalvalue=-0.063
variantdescriptor=F22E quantityname="abundance fitness" experimentalvalue=-0.412
variantdescriptor=E65F quantityname="abundance fitness" experimentalvalue=-0.118
variantdescriptor=F47P quantityname="abundance fitness" experimentalvalue=-1.09
variantdescriptor=S74D quantityname="abundance fitness" experimentalvalue=-0.065
variantdescriptor=C58N quantityname="abundance fitness" experimentalvalue=-0.005
variantdescriptor=K66G quantityname="abundance fitness" experimentalvalue=-0.038
